System: Mouse kidney M-1 cells
Test: Ussing Chamber assay: inhibition of amiloride sensitive short circuit current
Assay type: cell-based
Conditions: compound in the apical solution, 37° C.
pIC50 reference
In plain terms, pIC50 is the concentration in mol/L turned into minus its base-10 logarithm.

Lookup: Please look up its pIC50: CC[n+]1c(CNC(=O)c2nc(Cl)c(N)nc2N)n(CCCP(=O)(O)O)c2ccc(OC)cc21.O=C([O-])C(F)(F)F
Found: 7.25

***
Lookup: Would you kindly share the measured pIC50 for CCOP(=O)([O-])CCCn1c(CNC(=O)c2nc(Cl)c(N)nc2N)[n+](CC)c2cc(OC)ccc21 ?
Found: 7.54

Lookup: Item under review: CC[n+]1c(CNC(=O)c2nc(Cl)c(N)nc2N)n(C2CCN(C(C)=O)CC2)c2ccccc21.O=C[O-] . Reported pIC50?
Found: 8.30

Lookup: Endpoint output: pIC50 of CCOP(=O)(OCC)c1ccc(CCC[n+]2c(CNC(=O)c3nc(Cl)c(N)nc3N)n(CC)c3cc(OC)ccc32)cc1.O=C([O-])C(F)(F)F . Value?
Found: 8.70

Lookup: Param item = CCn1c(CNC(=O)c2nc(Br)c(N)nc2N)[n+](CCOCCOCCO)c2ccc(OC)cc21.O=C([O-])C(F)(F)F ; retrieve measured pIC50.
Found: 9.00
